Below, each entry is listed with its recorded hCRHR1 Luciferase Reporter Assay IC50.
- TARGET DESC: T1, corticotropin-releasing hormone (CRH) peptide (human and mouse (same sequence), not fully specified)
- T1 peptide: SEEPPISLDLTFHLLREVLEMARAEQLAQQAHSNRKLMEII
- ASSAY PROCEDURE: cell-based or functional assay
ENDPOINT: hCRHR1 Luciferase Reporter Assay IC50 (nM)

BINDER	RECORDED MEASUREMENT
PR302031 (antibody, human IgG1, kappa, V domains shown, humanized variant of PR301777) VH: EVQLVESGGGLVQPGGSLRLSCAASGFTFSNYWMNWVRQAPGKGLEWVGEIRLKSNNYATHYAESVKGRFTISRDDSKNSLYLQMNSLKTEDTAVYYCTVGTLVYWGQGTLVTVSS VL: EIVLTQSPATLSLSPGERATLSCRASQSVSTSTYNYMHWFQQKPGQAPRLLIKFASNLESGIPARFSGSGSGTDFTLTISSLEPEDTAVYYCQHSWEIPYTFGQGTKLEIKR	14
PR302029 (antibody, human IgG1, kappa, V domains shown, humanized variant of PR301777) VH: EVQLVESGGGLVQPGGSLRLSCAASGFTFSNYWMNWVRQAPGKGLEWVGEIRLKSNNYATHYAESVKGRFTISRDDSKNSLYLQMNSLKTEDTAVYYCTVGTLVYWGQGTLVTVSS VL: DIVLTQSPDSLAVSLGERATINCRASQSVSTSTYNYMHWFQQKPGQPPKLLIKFASNLESGVPDRFSGSGSGTDFTLTISSLQAEDTAVYYCQHSWEIPYTFGQGTKLEIKR	2.65
PR301777 (antibody, human IgG1, kappa, V domains shown, Series 5; mouse variable domains, human IgG1 wildtype Fc) VH: EMKLEESGGGLVQPGGSMKLSCVASGFTFSNYWMNWVRQSPEKGLEWVAEIRLKSNNYATHYAESVKGRFTISRDDSKSGVYLQMNNLGAEDTGIYYCTVGTLVYWGQGTLVTVSA VL: DIVLTQSPASLAVSLGQRATISCRASQSVSTSTYNYMHWFQQKPGQPPKLLIKFASNLESGVPARFSGSGSGTDFTLNIHPVEEEDTATFYCQHSWEIPYTFGGGTKLEIKR	0.674
